Target: T1, GFP-fused huCB1 in styrene maleic acid lipoparticles (CB1-SMALP-GFP) (human, UniProt P21554 1-472)
T1 construct: Prepared as described in Luna V. et al. 2018; also called huCB1-GFP-SMALP; GFP-tagged huCB1-SMALP; not shown: GFP fused to huCB1
T1 sequence (P21554 whole entry, the tested form may be a part): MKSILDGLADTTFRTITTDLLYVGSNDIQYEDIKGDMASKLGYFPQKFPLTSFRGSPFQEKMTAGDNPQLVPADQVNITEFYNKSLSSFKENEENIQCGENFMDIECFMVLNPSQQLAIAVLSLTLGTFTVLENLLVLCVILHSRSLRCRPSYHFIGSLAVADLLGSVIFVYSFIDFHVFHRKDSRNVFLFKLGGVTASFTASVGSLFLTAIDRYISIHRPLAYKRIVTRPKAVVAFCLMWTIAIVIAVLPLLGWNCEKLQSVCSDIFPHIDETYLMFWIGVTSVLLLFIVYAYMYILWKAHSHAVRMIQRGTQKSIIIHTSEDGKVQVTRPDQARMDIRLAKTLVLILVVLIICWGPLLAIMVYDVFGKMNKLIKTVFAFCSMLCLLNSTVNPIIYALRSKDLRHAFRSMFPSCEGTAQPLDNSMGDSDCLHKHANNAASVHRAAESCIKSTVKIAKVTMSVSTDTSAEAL
Assay: flow cytometry, yeast-displayed Fab, 2.5 nM CB1-SMALP-GFP, after background subtraction
Hi! Just check whether Relative binding fold change compared to LIBC528116 (Fab) is below 2 fold. Below gives TRUE, equal or above gives FALSE.

binder | label class
LIBC681737-1 (yeast-displayed Fab) (Fab, V domains shown, Original yeast clone without the LC P12S germline reversion; Monovalent Fab on yeast) VH: QVQLQESGPGLVKPSQTLSLTCTVSGGSIRRGGDYWAWIRQHPGKGLEWIGHVYYTGSTNYNPRFKDRATISVNTYKNQFSLKLSSVTAADTAVYYCARNYDTVTGYSYYYYGMDVWGQGTTVTVSS VL: DIQMTQSPSSLPASVGDRVTITCRASQSISSYLNWYQQKPGKAPKLLIYSARRLASGVPSRFSGSGSGTDFTLTISSLQPEDFATYYCQQYYHPPITFGGGTKVEIKR | TRUE
LIBC680574-1 (yeast-displayed Fab) (Fab, V domains shown) VH: QVQLQESGPGLVKPSQTLSLTCTVSGGSIRRGGDYWAWIRQHPGKGLEWIGHVYYTGSTKYNPSFKDRATISVNTYKNQFSLKLSSVTAADTAVYYCARNYDTLTGYSYYYYGMDVWGQGTTVTVSS VL: DIQMTQSPSSLSASVGDRVTITCRASQSISSYLNWYQQKPGKAPKLLIYGARRLGSGVPSRFSGSGSGTDFTLTISSLQPEDFATYYCQQYSSLPVTFGGGTKVEIKR | TRUE
LIBC681593-1 (yeast-displayed Fab) (Fab, V domains shown) VH: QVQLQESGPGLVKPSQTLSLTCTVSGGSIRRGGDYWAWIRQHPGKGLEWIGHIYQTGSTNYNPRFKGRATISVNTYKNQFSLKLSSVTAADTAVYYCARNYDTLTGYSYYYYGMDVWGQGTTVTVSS VL: DIQMTQSPSSLSASVGDRVTITCRASQSISSYLNWYQQKPGKAPKLLIYNARRLGSGVPSRFSGSGSGTDFTLTISSLQPEDFATYYCQQYRSSPVTFGGGTKVEIKR | FALSE
LIBC680773-1 (yeast-displayed Fab) (Fab, V domains shown) VH: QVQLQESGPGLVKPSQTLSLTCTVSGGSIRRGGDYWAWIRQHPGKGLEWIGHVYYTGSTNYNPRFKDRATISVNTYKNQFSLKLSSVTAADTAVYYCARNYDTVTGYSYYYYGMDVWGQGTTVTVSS VL: DIQMTQSPSSLSASVGDRVTITCRASQSISSYLNWYQQKPGKAPKLLIYKARLLSSGVPSRFSGSGSGTDFTLTISSLQPEDFATYYCQQYSRLPLTFGGGTKVEIKR | TRUE
LIBC680800-1 (yeast-displayed Fab) (Fab, V domains shown) VH: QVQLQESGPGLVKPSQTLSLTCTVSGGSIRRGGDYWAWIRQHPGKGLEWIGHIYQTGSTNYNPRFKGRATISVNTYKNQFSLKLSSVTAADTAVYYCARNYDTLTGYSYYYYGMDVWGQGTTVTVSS VL: DIQMTQSPSSLSASVGDRVTITCRASQSISSYLNWYQQKPGKAPKLLIYSARALSSGVPSRFSGSGSGTDFTLTISSLQPEDFATYYCQQYRKFPLTFGGGTKVEIKR | TRUE

From here, focus on the item given below.
For LIBC680562-1 (yeast-displayed Fab) (Fab, V domains shown) VH: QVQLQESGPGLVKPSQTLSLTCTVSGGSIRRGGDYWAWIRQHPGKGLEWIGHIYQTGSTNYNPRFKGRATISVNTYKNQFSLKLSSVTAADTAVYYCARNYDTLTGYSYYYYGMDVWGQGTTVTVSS VL: DIQMTQSPSSLSASVGDRVTITCRASQSISSYLNWYQQKPGKAPKLLIYSARRLSSGVPSRFSGSGSGTDFTLTISSLQPEDFATYYCQQYAKSPITFGGGTKVEIKR , is the recorded Relative binding fold change compared to LIBC528116 (Fab) below the cut-off of 2 fold?
TRUE
